- study-system: T1, murine ENTPD3 expressed on HEK293T cells (mouse, UniProt Q8BFW6 1-529)
- T1 construct: Transiently transfected HEK293T cells (vector with eGFP behind a P2A site); also called mENTPD3; mouse ENTPD3
- T1 sequence: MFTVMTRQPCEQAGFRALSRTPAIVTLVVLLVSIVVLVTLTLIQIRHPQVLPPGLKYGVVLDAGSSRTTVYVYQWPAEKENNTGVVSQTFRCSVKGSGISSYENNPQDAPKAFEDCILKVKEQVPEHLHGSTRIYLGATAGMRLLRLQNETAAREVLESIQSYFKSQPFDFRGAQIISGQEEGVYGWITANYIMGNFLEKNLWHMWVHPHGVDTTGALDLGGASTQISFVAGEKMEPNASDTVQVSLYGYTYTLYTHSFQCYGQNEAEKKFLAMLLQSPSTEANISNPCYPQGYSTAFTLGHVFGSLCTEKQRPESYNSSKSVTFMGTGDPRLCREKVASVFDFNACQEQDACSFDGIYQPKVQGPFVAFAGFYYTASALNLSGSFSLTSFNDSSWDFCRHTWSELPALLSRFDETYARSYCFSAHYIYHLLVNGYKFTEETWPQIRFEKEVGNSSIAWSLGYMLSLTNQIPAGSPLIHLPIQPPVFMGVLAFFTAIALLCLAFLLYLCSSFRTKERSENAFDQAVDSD
- assay-text: flow cytometry; soluble scFv on transfected HEK293T cells; anti-His PE

- binder: "hg012-E4 scFv (scFv, Soluble scFv made in E. coli, with Myc tag and His tag) scFv: QVTLKESGGGLVQPGRSLRLSCAASGFTFDDYAMHWVRQAPGKGLEWVSGISWNSGSIGYADSVKGRFTISRDNAKNSLYLQMNSLRAEDTALYYCAKGANYDILTGYRKDNWFDPWGQGTLVTVSSGSASAPKLEEGEFSEARVDIVMTQSPATLSLSPGERATLSCRASQSVGSSLAWFQQKPGQAPRLLIYDASNRATGIPARFSGSGSGTDFTLTISSLEPEDFAVYYCQQRSNWPPYTFGQGTKLEIKRTVAAPSVAAAGSEQKLISEEDLSHHHHHH"
  binding result: "no binding"
- binder: "hg012-F10 scFv (scFv, Soluble scFv made in E. coli, with Myc tag and His tag) scFv: QMQLVQSGGGVVQPGRSLRLSCAASGFTFSSYGMHWVRQAPGKGLERVAVISYDGSNKYYADSVKGRFTISRDNSKNTLYLQMNSLRAEDTALYYCAKDHHPYGSSDSFDYWGQGTLVTVSSGSASAPKLEEGEFSEARVQAVVTQEPSLTVSPGGTVTLTCGSSTGAVTRGHYPYWLQQKPGQAPRTLIYDTVKKHSWTPARFSGSLVGGKAALTLSGAQPEDEADYYCLLSFIDTRYPARYVFGTGTKVTVLGQPKANPTVTLFPPSSAAAGSEQKLISEEDLSHHHHHH"
  binding result: "no binding"
- binder: "hg012-B7 scFv (scFv, Soluble scFv made in E. coli, with Myc tag and His tag) scFv: QVQLQQSGAEVKKPGASVKVSCKASGYTFTSYAMHWVRQAPGQRLEWMGWINAGNGNTKYSQKLQGRVTITRDTSASTAYMELSSLRSEDTAVYYCARDSGYDLFDYWGQGTLVTVSSGSASAPKLEEGEFSEARVQAVVTQEPSFSVSPGGTVTLTCGLTSGSVSTTYYPSWYQQTPGQTPRTLIYKTNLRSPGVPDRFSGSILGNKAALTITGAQADDDSDYYCLLYMGSGVWVFGGGTRLTVLGQPKAAPSVTLFPPSSAAAGSEQKLISEEDLSHHHHHH"
  binding result: "no binding"
